system: OVCAR-5 complex spheroids with HUVEC/MSC, viability, % test/control; experiment: Anticancer human tumor OVCAR-5 cell line growth inhibition [AhR]; conditions: curve of first compound; second compound 0.316 µM;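 further: spheroids exposed to compounds for 7 days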
Assign pIC50 to each entry below.
FYI, pIC50 means -log10 of a concentration in mol per litre.

Given the entry COc1cccc2c1C(=O)c1c(O)c3c(c(O)c1C2=O)CC(O)(C(=O)CO)CC3OC1CC(N)C(O)C(C)O1 (centres undefined) + CC(CO)NC(=O)c1cc(-c2ccc(Cl)cc2)nn(-c2cnn(C)c2)c1=O , report its measured pIC50.
6.55

Given the entry Nc1ccccc1NC(=O)c1ccc(CNC(=O)OCc2cccnc2)cc1 + Cc1cncc(-c2nc(NCCc3c[nH]c4ccccc34)c3ncn(C(C)C)c3n2)c1 , report its measured pIC50.
6.14

Given the entry CC1COCCN1c1cc(-c2ccnn2C)c2ccnc(-c3ccn[nH]3)c2n1 (centres undefined) + CC(CO)NC(=O)c1cc(-c2ccc(Cl)cc2)nn(-c2cnn(C)c2)c1=O , report its measured pIC50.
6.56

Given the entry CC1COCCN1c1cc(-c2ccnn2C)c2ccnc(-c3ccn[nH]3)c2n1 (centres undefined) + Cc1ccccc1N=Nc1ccc(NC(=O)c2ccnn2C)c(C)c1 , report its measured pIC50.
6.60

Given the entry Nc1ccccc1NC(=O)c1ccc(CNC(=O)OCc2cccnc2)cc1 + Cc1ccccc1N=Nc1ccc(NC(=O)c2ccnn2C)c(C)c1 , report its measured pIC50.
6.08

Given the entry COc1ccc([C@@H](O)c2cc(-c3ncnc4cc(N5CCOCC5)ccc34)c(F)cc2Cl)nn1 + Cc1ccccc1N=Nc1ccc(NC(=O)c2ccnn2C)c(C)c1 , report its measured pIC50.
5.53

Given the entry COc1cccc2c1C(=O)c1c(O)c3c(c(O)c1C2=O)CC(O)(C(=O)CO)CC3OC1CC(N)C(O)C(C)O1 (centres undefined) + Cc1ccccc1N=Nc1ccc(NC(=O)c2ccnn2C)c(C)c1 , report its measured pIC50.
6.79

Given the entry O=C(C=Cc1cccc(S(=O)(=O)Nc2ccccc2)c1)NO + Cc1cncc(-c2nc(NCCc3c[nH]c4ccccc34)c3ncn(C(C)C)c3n2)c1 , report its measured pIC50.
6.00

Given the entry CCc1c2c(nc3ccc(O)cc13)-c1cc3c(c(=O)n1C2)COC(=O)[C@]3(O)CC + CC(CO)NC(=O)c1cc(-c2ccc(Cl)cc2)nn(-c2cnn(C)c2)c1=O , report its measured pIC50.
8.24

Given the entry COc1cc(Nc2ncc3c(n2)-c2ccc(Cl)cc2C(c2c(F)cccc2OC)=NC3)ccc1C(=O)O + Cc1cncc(-c2nc(NCCc3c[nH]c4ccccc34)c3ncn(C(C)C)c3n2)c1 , report its measured pIC50.
5.52

Given the entry COc1ccc([C@@H](O)c2cc(-c3ncnc4cc(N5CCOCC5)ccc34)c(F)cc2Cl)nn1 + Cc1cncc(-c2nc(NCCc3c[nH]c4ccccc34)c3ncn(C(C)C)c3n2)c1 , report its measured pIC50.
5.45

Given the entry CC1COCCN1c1cc(-c2ccnn2C)c2ccnc(-c3ccn[nH]3)c2n1 (centres undefined) + Cc1cncc(-c2nc(NCCc3c[nH]c4ccccc34)c3ncn(C(C)C)c3n2)c1 , report its measured pIC50.
6.55

Given the entry Nc1ccccc1NC(=O)c1ccc(CNC(=O)OCc2cccnc2)cc1 + CC(CO)NC(=O)c1cc(-c2ccc(Cl)cc2)nn(-c2cnn(C)c2)c1=O , report its measured pIC50.
6.29

Given the entry CCc1c2c(nc3ccc(O)cc13)-c1cc3c(c(=O)n1C2)COC(=O)[C@]3(O)CC + Cc1ccccc1N=Nc1ccc(NC(=O)c2ccnn2C)c(C)c1 , report its measured pIC50.
8.09

Given the entry COc1cccc2c1C(=O)c1c(O)c3c(c(O)c1C2=O)CC(O)(C(=O)CO)CC3OC1CC(N)C(O)C(C)O1 (centres undefined) + Cc1cncc(-c2nc(NCCc3c[nH]c4ccccc34)c3ncn(C(C)C)c3n2)c1 , report its measured pIC50.
6.62

Given the entry O=C(C=Cn1cnc(-c2cc(C(F)(F)F)cc(C(F)(F)F)c2)n1)NNc1cnccn1 + CC(CO)NC(=O)c1cc(-c2ccc(Cl)cc2)nn(-c2cnn(C)c2)c1=O , report its measured pIC50.
5.66

Given the entry COc1cc(C2c3cc4c(cc3C(OC3OC5COC(C)OC5C(O)C3O)C3COC(=O)C23)OCO4)cc(OC)c1O (centres undefined) + CC(CO)NC(=O)c1cc(-c2ccc(Cl)cc2)nn(-c2cnn(C)c2)c1=O , report its measured pIC50.
5.41

---

Assign viability, T/C to each entry below.
system: OVCAR-5 complex spheroids with HUVEC/MSC, viability, % test/control; experiment: Anticancer human tumor OVCAR-5 cell line growth inhibition [AhR]; details: second compound 3.16 µM; first compound 0.316 µM; stronger effect = lower value;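 further: spheroids exposed to compounds for 7 days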;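 on viability, T/C: 100% = DMSO vehicle control wells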
Report as a plain number; the unit % is understood.

Given the entry COc1cc(Nc2ncc3c(n2)-c2ccc(Cl)cc2C(c2c(F)cccc2OC)=NC3)ccc1C(=O)O + CC(CO)NC(=O)c1cc(-c2ccc(Cl)cc2)nn(-c2cnn(C)c2)c1=O , report its measured viability, T/C.
65.4

Given the entry CC1(C)CCC(CN2CCN(c3ccc(C(=O)NS(=O)(=O)c4ccc(NCC5CCOCC5)c([N+](=O)[O-])c4)c(Oc4cnc5[nH]ccc5c4)c3)CC2)=C(c2ccc(Cl)cc2)C1 + Cc1cncc(-c2nc(NCCc3c[nH]c4ccccc34)c3ncn(C(C)C)c3n2)c1 , report its measured viability, T/C.
86.3

Given the entry O=C(C=Cc1cccc(S(=O)(=O)Nc2ccccc2)c1)NO + CC(CO)NC(=O)c1cc(-c2ccc(Cl)cc2)nn(-c2cnn(C)c2)c1=O , report its measured viability, T/C.
72.4

Given the entry O=C(C=Cc1cccc(S(=O)(=O)Nc2ccccc2)c1)NO + Cc1cncc(-c2nc(NCCc3c[nH]c4ccccc34)c3ncn(C(C)C)c3n2)c1 , report its measured viability, T/C.
66

Given the entry Nc1ccccc1NC(=O)c1ccc(CNC(=O)OCc2cccnc2)cc1 + Cc1ccccc1N=Nc1ccc(NC(=O)c2ccnn2C)c(C)c1 , report its measured viability, T/C.
79.1

Given the entry O=C(c1cc(Cc2n[nH]c(=O)c3ccccc23)ccc1F)N1CCN(C(=O)C2CC2)CC1 + CC(CO)NC(=O)c1cc(-c2ccc(Cl)cc2)nn(-c2cnn(C)c2)c1=O , report its measured viability, T/C.
102

Given the entry COc1cc(Nc2ncc3c(n2)-c2ccc(Cl)cc2C(c2c(F)cccc2OC)=NC3)ccc1C(=O)O + Cc1cncc(-c2nc(NCCc3c[nH]c4ccccc34)c3ncn(C(C)C)c3n2)c1 , report its measured viability, T/C.
56.7

Given the entry CC(C)c1c(-c2ccccc2)nc2c(C#N)c[nH]n2c1=O + Cc1cncc(-c2nc(NCCc3c[nH]c4ccccc34)c3ncn(C(C)C)c3n2)c1 , report its measured viability, T/C.
86.1

Given the entry CC1COCCN1c1cc(-c2ccnn2C)c2ccnc(-c3ccn[nH]3)c2n1 (stereo not drawn) + Cc1cncc(-c2nc(NCCc3c[nH]c4ccccc34)c3ncn(C(C)C)c3n2)c1 , report its measured viability, T/C.
36.5

Given the entry CC1(C)CCC(CN2CCN(c3ccc(C(=O)NS(=O)(=O)c4ccc(NCC5CCOCC5)c([N+](=O)[O-])c4)c(Oc4cnc5[nH]ccc5c4)c3)CC2)=C(c2ccc(Cl)cc2)C1 + CC(CO)NC(=O)c1cc(-c2ccc(Cl)cc2)nn(-c2cnn(C)c2)c1=O , report its measured viability, T/C.
104

Given the entry COc1cc(C2c3cc4c(cc3C(OC3OC5COC(C)OC5C(O)C3O)C3COC(=O)C23)OCO4)cc(OC)c1O (stereo not drawn) + CC(CO)NC(=O)c1cc(-c2ccc(Cl)cc2)nn(-c2cnn(C)c2)c1=O , report its measured viability, T/C.
98

Given the entry Nc1ncn(C2CC(O)C(CO)O2)c(=O)n1 (stereo not drawn) + CC(CO)NC(=O)c1cc(-c2ccc(Cl)cc2)nn(-c2cnn(C)c2)c1=O , report its measured viability, T/C.
70.6

Given the entry Nc1ccn(C2OC(CO)C(O)C2(F)F)c(=O)n1 (stereo not drawn) + CC(CO)NC(=O)c1cc(-c2ccc(Cl)cc2)nn(-c2cnn(C)c2)c1=O , report its measured viability, T/C.
29.6

Given the entry NS(=O)(=O)OCC1CC(n2ccc3c(NC4CCc5ccccc54)ncnc32)CC1O (stereo not drawn) + Cc1cncc(-c2nc(NCCc3c[nH]c4ccccc34)c3ncn(C(C)C)c3n2)c1 , report its measured viability, T/C.
22.7

Given the entry COc1cccc2c1C(=O)c1c(O)c3c(c(O)c1C2=O)CC(O)(C(=O)CO)CC3OC1CC(N)C(O)C(C)O1 (stereo not drawn) + CC(CO)NC(=O)c1cc(-c2ccc(Cl)cc2)nn(-c2cnn(C)c2)c1=O , report its measured viability, T/C.
52.7

Given the entry CC1COCCN1c1cc(-c2ccnn2C)c2ccnc(-c3ccn[nH]3)c2n1 (stereo not drawn) + Cc1ccccc1N=Nc1ccc(NC(=O)c2ccnn2C)c(C)c1 , report its measured viability, T/C.
43.4

Given the entry COc1ccc([C@@H](O)c2cc(-c3ncnc4cc(N5CCOCC5)ccc34)c(F)cc2Cl)nn1 + Cc1cncc(-c2nc(NCCc3c[nH]c4ccccc34)c3ncn(C(C)C)c3n2)c1 , report its measured viability, T/C.
79.8

Given the entry Nc1ncn(C2CC(O)C(CO)O2)c(=O)n1 (stereo not drawn) + Cc1cncc(-c2nc(NCCc3c[nH]c4ccccc34)c3ncn(C(C)C)c3n2)c1 , report its measured viability, T/C.
59.8

Given the entry Nc1ccn(C2OC(CO)C(O)C2(F)F)c(=O)n1 (stereo not drawn) + Cc1cncc(-c2nc(NCCc3c[nH]c4ccccc34)c3ncn(C(C)C)c3n2)c1 , report its measured viability, T/C.
32

Given the entry Nc1ccccc1NC(=O)c1ccc(CNC(=O)OCc2cccnc2)cc1 + CC(CO)NC(=O)c1cc(-c2ccc(Cl)cc2)nn(-c2cnn(C)c2)c1=O , report its measured viability, T/C.
59.7

Given the entry NS(=O)(=O)OCC1CC(n2ccc3c(NC4CCc5ccccc54)ncnc32)CC1O (stereo not drawn) + CC(CO)NC(=O)c1cc(-c2ccc(Cl)cc2)nn(-c2cnn(C)c2)c1=O , report its measured viability, T/C.
33.5

Given the entry CC1(C)CCC(CN2CCN(c3ccc(C(=O)NS(=O)(=O)c4ccc(NCC5CCOCC5)c([N+](=O)[O-])c4)c(Oc4cnc5[nH]ccc5c4)c3)CC2)=C(c2ccc(Cl)cc2)C1 + Cc1ccccc1N=Nc1ccc(NC(=O)c2ccnn2C)c(C)c1 , report its measured viability, T/C.
108

Given the entry COc1cccc2c1C(=O)c1c(O)c3c(c(O)c1C2=O)CC(O)(C(=O)CO)CC3OC1CC(N)C(O)C(C)O1 (stereo not drawn) + Cc1ccccc1N=Nc1ccc(NC(=O)c2ccnn2C)c(C)c1 , report its measured viability, T/C.
48

Source: PubChem BioAssay AID1919015
